# system-under-test: Neuropeptides B/W receptor type 1 (Mus musculus, UniProt P49681)
# Sequence (P49681 whole entry): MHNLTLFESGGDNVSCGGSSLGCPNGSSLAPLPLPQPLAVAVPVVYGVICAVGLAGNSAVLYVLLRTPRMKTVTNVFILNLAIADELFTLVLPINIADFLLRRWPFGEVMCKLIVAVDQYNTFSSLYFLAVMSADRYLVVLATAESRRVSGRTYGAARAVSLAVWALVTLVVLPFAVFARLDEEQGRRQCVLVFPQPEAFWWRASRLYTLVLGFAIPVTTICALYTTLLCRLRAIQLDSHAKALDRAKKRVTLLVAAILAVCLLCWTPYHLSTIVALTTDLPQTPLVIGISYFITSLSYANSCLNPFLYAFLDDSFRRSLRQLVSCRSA
# measurement-protocol: Antagonist activity at mouse NPBWR1 expressed in CHO-K1 cells assessed as inhibition of hNPW23 and forskolin-stimulated cAMP production after 1 hr by TR-FRET assay
# Type: functional, cell-based
measurement-label: IC50 (nM)
Write the value in nM as a bare number.

Need IC50, item COc1ccc([C@@H](C)N[C@@H]2CC[C@H](C(=O)N3CCN(c4nnc(C(F)(F)F)s4)CC3)[C@@H](c3ccsc3)C2)cc1
115

Try this molecule next: O=C([C@H]1CC[C@@H](NC2(c3ccccc3Br)CCC2)C[C@@H]1c1ccsc1)N1CCN(c2ccc(Cl)cn2)CC1
2210

Input COc1ccc([C@@H](C)N[C@@H]2CC[C@H](C(=O)N3CCN(c4cccc(Cl)n4)CC3)[C@@H](c3ccsc3)C2)cc1
7490

Next up: COc1ccc([C@@H](C)N[C@@H]2CC[C@H](C(=O)N3CCN(c4ccccn4)CC3)[C@@H](c3ccsc3)C2)cc1
330

Now try COc1ccc([C@@H](C)N[C@@H]2CC[C@H](C(=O)N3CCN(c4nccs4)CC3)[C@@H](c3ccsc3)C2)cc1 .
207

Now give it for CC(C)(N[C@@H]1CC[C@H](C(=O)N2CCN(c3ccc(Cl)cn3)CC2)[C@@H](c2ccsc2)C1)c1ccc(Cl)cc1 too.
1700

And then COc1ccc([C@@H](C)N[C@@H]2CC[C@H](C(=O)N3CCN(c4nc5ccccc5o4)CC3)[C@@H](c3ccsc3)C2)cc1 , what is it?
18

====

Give IC50 for every item shown.
# system-under-test: Neuropeptides B/W receptor type 1 (Homo sapiens, UniProt P48145)
# Sequence (P48145 whole entry): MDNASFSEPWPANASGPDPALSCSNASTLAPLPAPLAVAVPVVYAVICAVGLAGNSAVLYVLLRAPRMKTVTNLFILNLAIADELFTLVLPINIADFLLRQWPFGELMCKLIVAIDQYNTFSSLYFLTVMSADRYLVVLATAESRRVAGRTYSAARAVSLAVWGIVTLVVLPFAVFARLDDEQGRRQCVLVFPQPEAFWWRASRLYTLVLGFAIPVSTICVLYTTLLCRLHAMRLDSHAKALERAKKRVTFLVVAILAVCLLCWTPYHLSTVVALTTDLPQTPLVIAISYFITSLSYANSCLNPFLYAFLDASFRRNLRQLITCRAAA
# measurement-protocol: Antagonist activity at human NPBWR1 expressed in CHO-K1 cells assessed as inhibition of hNPW23 and forskolin-stimulated cAMP production after 1 hr by TR-FRET assay
# Format: functional, cell-based
Give a bare numeral; the unit µM is implied.

Find the recorded IC50 belonging to COc1ccc([C@@H](C)N[C@@H]2CC[C@H](C(=O)N3CCN(c4ccc(Cl)cn4)CC3)[C@@H](c3ccsc3)C2)cc1 and report it.
1.92

Try the molecule COc1ccc(C2(N[C@@H]3CC[C@H](C(=O)N4CCN(c5nc6ccccc6[nH]5)CC4)[C@@H](c4ccsc4)C3)CCC2)cc1
0.011

====

Please respond with reported IC50 for every item in the list.
# system-under-test: Neuropeptides B/W receptor type 1 (Mus musculus, UniProt P49681)
# measurement-protocol: Antagonist activity at mouse NPBWR1 expressed in CHO-K1 cells assessed as inhibition of hNPW23 and forskolin-stimulated cAMP production after 1 hr by TR-FRET assay
# Type: functional, cell-based
State the answer as a number, implicitly in nM.

Could you tell me which IC50 is on file for Cc1ccc(C(C)(C)N[C@@H]2CC[C@H](C(=O)N3CCN(c4ccc(Cl)cn4)CC3)[C@@H](c3ccsc3)C2)cc1 ?
211

Would you kindly repeat that for COc1ccc([C@@H](C)N[C@@H]2CC[C@H](C(=O)N3CCN(c4ccc(OC)cn4)CC3)[C@@H](c3ccsc3)C2)cc1 ?
7300

Consider next the molecule COc1ccc([C@@H](C)N[C@@H]2CC[C@H](C(=O)N3CCN(c4nc5ccccc5s4)CC3)[C@@H](c3ccsc3)C2)cc1 in the same way.
24

Please do the same for C[C@@H](N[C@@H]1CC[C@H](C(=O)N2CCN(c3ccc(Cl)cn3)CC2)[C@@H](c2ccsc2)C1)c1ccc(Br)cc1 as well.
2630

How about CC(C)(N[C@@H]1CC[C@H](C(=O)N2CCN(c3ccc(Cl)cn3)CC2)[C@@H](c2ccsc2)C1)c1ccc(F)cc1 ?
320

Request: COc1ccc([C@@H](C)N[C@@H]2CC[C@H](C(=O)N3CCN(c4ccc(Cl)cn4)CC3)[C@@H](c3ccsc3)C2)cc1
360

Now give it for COc1ccc(CN[C@@H]2CC[C@H](C(=O)N3CCN(c4ccc(Cl)cn4)CC3)[C@@H](c3ccsc3)C2)cc1 too.
3590

====

# system-under-test: Neuropeptides B/W receptor type 1 (Mus musculus, UniProt P49681)
# measurement-protocol: Antagonist activity at mouse NPBWR1 expressed in CHO-K1 cells assessed as inhibition of hNPW23 and forskolin-stimulated cAMP production after 1 hr by TR-FRET assay
# Format: functional, cell-based
pIC50: −log10 of the molar value.
Use 1 when the recorded pIC50 is no lower than 7; use 0 when it is lower.

API: above_or_equal(metric=pIC50, cutoff=7) for item COc1ccc(C2(N[C@@H]3CC[C@H](C(=O)N4CCN(c5ccc(Cl)cn5)CC4)[C@@H](c4ccsc4)C3)CCC2)cc1
1

// query: COc1ccc(C2(N[C@@H]3CC[C@H](C(=O)N4CCN(c5nc6ccccc6s5)CC4)[C@@H](c4ccsc4)C3)CCC2)cc1
1

How about COc1ccc([C@@H](C)N[C@@H]2CC[C@H](C(=O)N3CCN(c4ccc(C#N)cn4)CC3)[C@@H](c3ccsc3)C2)cc1 ?
0

Now the same for COc1ccc(C(C)(C)N[C@@H]2CC[C@H](C(=O)N3CCN(c4ccc(Cl)cn4)CC3)[C@@H](c3ccsc3)C2)cc1
1

Input COc1ccc([C@@H](C)N[C@@H]2CC[C@H](C(=O)N3CCN(c4ncc(Br)s4)CC3)[C@@H](c3ccsc3)C2)cc1
1

// query: COc1ccc([C@@H](C)N[C@@H]2CC[C@H](C(=O)N3CCN(c4ccc(C(F)(F)F)cn4)CC3)[C@@H](c3ccsc3)C2)cc1
0

Then what about the molecule COc1ccc(C2(N[C@@H]3CC[C@H](C(=O)N4CCN(c5nc6cc(F)ccc6[nH]5)CC4)[C@@H](c4ccsc4)C3)CCC2)cc1 ?
1

====

# system-under-test: Neuropeptides B/W receptor type 1 (Mus musculus, UniProt P49681)
# measurement-protocol: Displacement of [125]-hNPW23 from mouse NPBWR1 expressed in CHO-K1 cells membrane by scintillation proximity assay
# Assay type: cell membranes
measurement-label: pIC50
The meaning of pIC50 here: minus log10 of the concentration in molar units.

Given the entry CC(C)(N[C@@H]1CC[C@H](C(=O)N2CCN(c3ccc(Cl)cn3)CC2)[C@@H](c2ccsc2)C1)c1ccc([N+](=O)[O-])cc1 , report its measured pIC50.
7.00

Subsequent entry: COc1ccc([C@@H](C)N[C@@H]2CC[C@H](C(=O)N3CCN(c4ccc(C)cn4)CC3)[C@@H](c3ccsc3)C2)cc1
7.13

Now consider O=C([C@H]1CC[C@@H](NC2(c3ccccc3Br)CCC2)C[C@@H]1c1ccsc1)N1CCN(c2ccc(Cl)cn2)CC1 and answer again.
5.66

// query: COc1ccc([C@@H](C)N[C@@H]2CC[C@H](C(=O)N3CCN(c4ccc(Cl)cn4)CC3)[C@@H](c3ccsc3)C2)cc1
7.60

Also COc1ccc([C@@H](C)N[C@@H]2CC[C@H](C(=O)N3CCN(c4ncc(Br)s4)CC3)[C@@H](c3ccsc3)C2)cc1 ?
7.85

Now the same for COc1ccc([C@@H](C)N[C@@H]2CC[C@H](C(=O)N3CCN(c4nc5ccccc5[nH]4)CC3)[C@@H](c3ccsc3)C2)cc1
8.08

What about COc1ccc([C@@H](C)N[C@@H]2CC[C@H](C(=O)N3CCN(c4nc5ccccc5o4)CC3)[C@@H](c3ccsc3)C2)cc1 ?
8.55

Same lookup for COc1ccc(C2(N[C@@H]3CC[C@H](C(=O)N4CCN(c5nc6cc(F)ccc6[nH]5)CC4)[C@@H](c4ccsc4)C3)CCC2)cc1 , please.
9.38

Now try O=C([C@H]1CC[C@@H](NC2(c3cccc(Br)c3)CCC2)C[C@@H]1c1ccsc1)N1CCN(c2ccc(Cl)cn2)CC1 .
6.80

Try the molecule Cc1ccc(C(C)(C)N[C@@H]2CC[C@H](C(=O)N3CCN(c4ccc(Cl)cn4)CC3)[C@@H](c3ccsc3)C2)cc1
7.80

Consider next the molecule CC(C)(N[C@@H]1CC[C@H](C(=O)N2CCN(c3ccc(Cl)cn3)CC2)[C@@H](c2ccsc2)C1)c1ccc(F)cc1 in the same way.
7.77

Similarly, COc1ccc([C@@H](C)N[C@@H]2CC[C@H](C(=O)N3CCN(c4nc5ccccc5s4)CC3)[C@@H](c3ccsc3)C2)cc1 ?
8.35

Try this molecule next: COc1ccc([C@@H](C)N[C@@H]2CC[C@H](C(=O)N3CCN(c4ccc(C#N)cn4)CC3)[C@@H](c3ccsc3)C2)cc1
5.94

Cool, now COc1ccc([C@@H](C)N[C@@H]2CC[C@H](C(=O)N3CCN(c4nccs4)CC3)[C@@H](c3ccsc3)C2)cc1
6.71

How about COc1ccc(C2(N[C@@H]3CC[C@H](C(=O)N4CCN(c5nc6cc(F)ccc6o5)CC4)[C@@H](c4ccsc4)C3)CCC2)cc1 ?
9.70

Item: COc1ccc(CN[C@@H]2CC[C@H](C(=O)N3CCN(c4ccc(Cl)cn4)CC3)[C@@H](c3ccsc3)C2)cc1
5.82

And the next one, COc1ccc(C2(N[C@@H]3CC[C@H](C(=O)N4CCN(c5nc6ccc(F)cc6o5)CC4)[C@@H](c4ccsc4)C3)CCC2)cc1 ?
9.74

// same read-out, input: O=C([C@H]1CC[C@@H](NC2(c3ccc(Br)cc3)CCC2)C[C@@H]1c1ccsc1)N1CCN(c2ccc(Cl)cn2)CC1
7.09

Query COc1ccc(C(C)(C)N[C@@H]2CC[C@H](C(=O)N3CCN(c4ccc(Cl)cn4)CC3)[C@@H](c3ccsc3)C2)cc1 next
7.96

Then what about the molecule CC(C)(N[C@@H]1CC[C@H](C(=O)N2CCN(c3ccc(Cl)cn3)CC2)[C@@H](c2ccsc2)C1)c1ccc(Cl)cc1 ?
7.57

Same read-out for COc1cccc(C2(N[C@@H]3CC[C@H](C(=O)N4CCN(c5ccc(Cl)cn5)CC4)[C@@H](c4ccsc4)C3)CCC2)c1 ?
6.93

COc1ccc(C2(N[C@@H]3CC[C@H](C(=O)N4CCN(c5nc6ccccc6[nH]5)CC4)[C@@H](c4ccsc4)C3)CCC2)cc1 ?
8.96

Can you handle C[C@@H](N[C@@H]1CC[C@H](C(=O)N2CCN(c3ccc(Cl)cn3)CC2)[C@@H](c2ccsc2)C1)c1ccccc1 next?
6.66

Another: COc1ccc(C2(N[C@@H]3CC[C@H](C(=O)N4CCN(c5ccc(Cl)cn5)CC4)[C@@H](c4ccsc4)C3)CC2)cc1
7.25

Input COc1ccc([C@@H](C)N[C@@H]2CC[C@H](C(=O)N3CCN(c4ccc(Cl)cc4)CC3)[C@@H](c3ccsc3)C2)cc1
5.43

Proceed to COc1ccc(C2(N[C@@H]3CC[C@H](C(=O)N4CCN(c5ccc(Cl)cn5)CC4)[C@@H](c4ccsc4)C3)CCC2)cc1
8.51

Continue with C[C@@H](N[C@@H]1CC[C@H](C(=O)N2CCN(c3ccc(Cl)cn3)CC2)[C@@H](c2ccsc2)C1)c1ccc(Br)cc1
6.87

Further, for COc1ccc(C2(N[C@@H]3CC[C@H](C(=O)N4CCN(c5nc6ccccc6s5)CC4)[C@@H](c4ccsc4)C3)CCC2)cc1 ?
9.48

Another molecule: COc1ccc([C@@H](C)N[C@@H]2CC[C@H](C(=O)N3CCN(c4nnc(C(F)(F)F)s4)CC3)[C@@H](c3ccsc3)C2)cc1
7.38
